Numbers sourced from PubChem BioAssay (NCI).

I'd appreciate it if you could supply TGI values for the items below.
tested on: SNB-75 CNS; experiment: NCI tumour cell line growth inhibition, 48 h

Specify measured TGI for `COc1cc2c(cc1OC)C(=O)Cc1ccc3c(c1CNCC2)OCO3` .
> 100 µM

Output measured TGI for this item: `COC(=O)CCCC(=O)NC1=C(Nc2ccccc2)C(=O)c2ccccc2C1=O`
33.8 µM

In one line, give reported TGI of the entry Fc1ccc2c(c1)SC1Oc3ccccc3-c3c1c-2nn3-c1ccccc1 (stereo unspecified) .
> 100 µM

Recall and state the measured TGI for `Cc1nc2c(=O)n(C)c(=O)nc-2n(CCO)c1C` .
> 100 µM

Indicate the recorded TGI value for this compound: `[C-]#[O+].[C-]#[O+].[Ir].[O-]c1ccc2ccccc2c1N=Nc1ccccc1`
59.6 µM

Please list TGI recorded for the compound `O=[N+]([O-])c1ccc(/C=N\Nc2ccc([N+](=O)[O-])cn2)cc1`
> 100 µM
